Just for reference, paper PMC11603219 is where these values come from.

Target: BChE from equine serum (Equus caballus)
Sequence (P81908 whole entry): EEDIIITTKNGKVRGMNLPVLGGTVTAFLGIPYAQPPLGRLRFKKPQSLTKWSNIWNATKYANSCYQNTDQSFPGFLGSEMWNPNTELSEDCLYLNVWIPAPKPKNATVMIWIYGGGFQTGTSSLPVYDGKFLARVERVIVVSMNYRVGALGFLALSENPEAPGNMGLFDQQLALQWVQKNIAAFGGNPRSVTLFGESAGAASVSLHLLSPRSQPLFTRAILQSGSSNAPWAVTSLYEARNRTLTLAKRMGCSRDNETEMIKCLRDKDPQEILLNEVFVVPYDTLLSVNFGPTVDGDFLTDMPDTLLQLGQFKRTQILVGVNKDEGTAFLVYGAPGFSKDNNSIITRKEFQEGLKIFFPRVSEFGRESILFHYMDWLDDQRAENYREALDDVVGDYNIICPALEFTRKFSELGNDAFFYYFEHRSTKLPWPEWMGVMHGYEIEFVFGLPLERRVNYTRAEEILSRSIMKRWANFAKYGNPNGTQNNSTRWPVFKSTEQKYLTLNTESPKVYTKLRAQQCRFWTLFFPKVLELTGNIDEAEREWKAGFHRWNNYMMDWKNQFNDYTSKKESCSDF
Experiment: biochemical
Quantity: Ki (nM)

{"Smi": "C1=Cc2ccccc2N(Cc2cn(-c3cccc4ccccc34)nn2)c2ccccc21", "Assayed System": "BChE from equine serum (Equus caballus)", "Experimental Result": 1.15}
{"Smi": "NS(=O)(=O)c1ccc(-n2cc(CN3c4ccccc4C=Cc4ccccc43)nn2)cc1", "Assayed System": "BChE from equine serum (Equus caballus)", "Experimental Result": 15.3}
{"Smi": "C1=Cc2ccccc2N(Cc2cn(-c3cccnc3)nn2)c2ccccc21", "Assayed System": "BChE from equine serum (Equus caballus)", "Experimental Result": 7.65}
{"Smi": "COc1cc(-n2cc(CN3c4ccccc4C=Cc4ccccc43)nn2)cc(OC)c1OC", "Assayed System": "BChE from equine serum (Equus caballus)", "Experimental Result": 2.22}
{"Smi": "C1=Cc2ccccc2N(Cc2cn(Cc3ccccc3)nn2)c2ccccc21", "Assayed System": "BChE from equine serum (Equus caballus)", "Experimental Result": 48.8}
{"Smi": "O=[N+]([O-])c1ccc(-n2cc(CN3c4ccccc4C=Cc4ccccc43)nn2)cc1", "Assayed System": "BChE from equine serum (Equus caballus)", "Experimental Result": 39.1}
{"Smi": "Oc1ccccc1-n1cc(CN2c3ccccc3C=Cc3ccccc32)nn1", "Assayed System": "BChE from equine serum (Equus caballus)", "Experimental Result": 16.2}
{"Smi": "O=c1ccc2ccc(OCCn3cc(CN4c5ccccc5C=Cc5ccccc54)nn3)cc2o1", "Assayed System": "BChE from equine serum (Equus caballus)", "Experimental Result": 11.2}
{"Smi": "COc1ccc(-n2cc(CN3c4ccccc4C=Cc4ccccc43)nn2)cc1", "Assayed System": "BChE from equine serum (Equus caballus)", "Experimental Result": 4.11}

* * *

Biological target: hCA II (Homo sapiens, UniProt P00918)
Just so you know, the groups by Ki go like this: low = under 0.04 µM, intermediate = from 0.04 µM up to 0.06 µM, high = 0.06 µM and over

{"Compound": "C1=Cc2ccccc2N(Cc2cn(-c3cccc4ccccc34)nn2)c2ccccc21 [Compound 13]", "Assayed System": "hCA II (Homo sapiens, UniProt P00918)", "Answer Label": "low"}
{"Compound": "C1=Cc2ccccc2N(Cc2cn(-c3cccnc3)nn2)c2ccccc21 [Compound 14]", "Assayed System": "hCA II (Homo sapiens, UniProt P00918)", "Answer Label": "low"}
{"Compound": "O=[N+]([O-])c1ccc(-n2cc(CN3c4ccccc4C=Cc4ccccc43)nn2)cc1 [Compound 18]", "Assayed System": "hCA II (Homo sapiens, UniProt P00918)", "Answer Label": "high"}
{"Compound": "NS(=O)(=O)c1ccc(-n2cc(CN3c4ccccc4C=Cc4ccccc43)nn2)cc1 [Compound 17]", "Assayed System": "hCA II (Homo sapiens, UniProt P00918)", "Answer Label": "intermediate"}
{"Compound": "Oc1ccccc1-n1cc(CN2c3ccccc3C=Cc3ccccc32)nn1 [Compound 20]", "Assayed System": "hCA II (Homo sapiens, UniProt P00918)", "Answer Label": "high"}
{"Compound": "O=c1ccc2ccc(OCCn3cc(CN4c5ccccc5C=Cc5ccccc54)nn3)cc2o1 [Compound 16]", "Assayed System": "hCA II (Homo sapiens, UniProt P00918)", "Answer Label": "intermediate"}

* * *

Biological target: AChE (Homo sapiens, UniProt P22303)
Sequence (P22303 32-614): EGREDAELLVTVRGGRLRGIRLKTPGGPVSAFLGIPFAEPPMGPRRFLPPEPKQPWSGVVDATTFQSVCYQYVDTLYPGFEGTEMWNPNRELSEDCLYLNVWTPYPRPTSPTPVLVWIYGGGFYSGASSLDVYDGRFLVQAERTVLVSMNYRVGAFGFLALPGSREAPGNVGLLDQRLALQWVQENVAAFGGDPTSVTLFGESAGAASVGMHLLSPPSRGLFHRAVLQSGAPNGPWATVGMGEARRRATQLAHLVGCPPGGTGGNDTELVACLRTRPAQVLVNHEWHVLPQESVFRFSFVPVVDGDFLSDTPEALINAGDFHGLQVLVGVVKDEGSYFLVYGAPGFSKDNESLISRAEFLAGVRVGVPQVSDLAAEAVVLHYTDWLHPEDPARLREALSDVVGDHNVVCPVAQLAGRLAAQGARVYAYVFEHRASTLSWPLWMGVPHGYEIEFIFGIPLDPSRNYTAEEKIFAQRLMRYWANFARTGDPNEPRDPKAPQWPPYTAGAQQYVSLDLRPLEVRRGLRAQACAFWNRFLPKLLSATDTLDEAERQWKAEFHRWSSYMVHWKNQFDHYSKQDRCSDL
pKi: −log10 of the molar value.

{"Smi": "O=[N+]([O-])c1ccc(-n2cc(CN3c4ccccc4C=Cc4ccccc43)nn2)cc1", "pKi": 7.35}
{"Smi": "NS(=O)(=O)c1ccc(-n2cc(CN3c4ccccc4C=Cc4ccccc43)nn2)cc1", "pKi": 7.72}
{"Smi": "Oc1ccccc1-n1cc(CN2c3ccccc3C=Cc3ccccc32)nn1", "pKi": 7.64}
{"Smi": "O=c1ccc2ccc(OCCn3cc(CN4c5ccccc5C=Cc5ccccc54)nn3)cc2o1", "pKi": 7.76}
{"Smi": "COc1cc(-n2cc(CN3c4ccccc4C=Cc4ccccc43)nn2)cc(OC)c1OC", "pKi": 7.46}
{"Smi": "C1=Cc2ccccc2N(Cc2cn(Cc3ccccc3)nn2)c2ccccc21", "pKi": 7.54}
{"Smi": "C1=Cc2ccccc2N(Cc2cn(-c3cccc4ccccc34)nn2)c2ccccc21", "pKi": 7.85}
{"Smi": "C1=Cc2ccccc2N(Cc2cn(-c3cccnc3)nn2)c2ccccc21", "pKi": 7.67}
{"Smi": "COc1ccc(-n2cc(CN3c4ccccc4C=Cc4ccccc43)nn2)cc1", "pKi": 7.62}

* * *

Tested on: BT-549 cells
Assay: MTT cytotoxicity assay, BT-549
Type: cell-based, human
Conditions: 96 h treatment

{"Smi": "COc1cc(-n2cc(CN3c4ccccc4C=Cc4ccccc43)nn2)cc(OC)c1OC", "Assayed System": "BT-549 cells", "IC50, µM": 18.1}
{"Smi": "NS(=O)(=O)c1ccc(-n2cc(CN3c4ccccc4C=Cc4ccccc43)nn2)cc1", "Assayed System": "BT-549 cells", "IC50, µM": 17.4}
{"Smi": "O=c1ccc2ccc(OCCn3cc(CN4c5ccccc5C=Cc5ccccc54)nn3)cc2o1", "Assayed System": "BT-549 cells", "IC50, µM": 17.7}
{"Smi": "C1=Cc2ccccc2N(Cc2cn(-c3cccnc3)nn2)c2ccccc21", "Assayed System": "BT-549 cells", "IC50, µM": 16.6}

* * *

The reader will find reported IC50 values listed item by item below.
Test system: BT-549 cells
Assay: MTT cytotoxicity assay, BT-549
Assay type: cell-based, human
Conditions: Homo sapiens, BT-549, 96 h, 96 h treatment

{"Compound": "Oc1ccccc1-n1cc(CN2c3ccccc3C=Cc3ccccc32)nn1 [Compound 20]", "IC50": "36.2 µM"}
{"Compound": "C1=Cc2ccccc2N(Cc2cn(-c3cccc4ccccc34)nn2)c2ccccc21 [Compound 13]", "IC50": "> 40 µM"}
{"Compound": "C1=Cc2ccccc2N(Cc2cn(-c3cccnc3)nn2)c2ccccc21 [Compound 14]", "IC50": "≤ 20 µM"}
{"Compound": "COc1cc(-n2cc(CN3c4ccccc4C=Cc4ccccc43)nn2)cc(OC)c1OC [Compound 19]", "IC50": "≤ 20 µM"}
{"Compound": "NS(=O)(=O)c1ccc(-n2cc(CN3c4ccccc4C=Cc4ccccc43)nn2)cc1 [Compound 17]", "IC50": "≤ 20 µM"}
{"Compound": "COc1ccc(-n2cc(CN3c4ccccc4C=Cc4ccccc43)nn2)cc1 [Compound 15]", "IC50": "26.8 µM"}
{"Compound": "C1=Cc2ccccc2N(Cc2cn(Cc3ccccc3)nn2)c2ccccc21 [Compound 12]", "IC50": "33.5 µM"}
{"Compound": "O=c1ccc2ccc(OCCn3cc(CN4c5ccccc5C=Cc5ccccc54)nn3)cc2o1 [Compound 16]", "IC50": "≤ 20 µM"}
{"Compound": "O=[N+]([O-])c1ccc(-n2cc(CN3c4ccccc4C=Cc4ccccc43)nn2)cc1 [Compound 18]", "IC50": "> 40 µM"}

* * *

Entries below carry reported Ki on hCA I (Homo sapiens, UniProt P00915).
Sequence (P00915 whole entry): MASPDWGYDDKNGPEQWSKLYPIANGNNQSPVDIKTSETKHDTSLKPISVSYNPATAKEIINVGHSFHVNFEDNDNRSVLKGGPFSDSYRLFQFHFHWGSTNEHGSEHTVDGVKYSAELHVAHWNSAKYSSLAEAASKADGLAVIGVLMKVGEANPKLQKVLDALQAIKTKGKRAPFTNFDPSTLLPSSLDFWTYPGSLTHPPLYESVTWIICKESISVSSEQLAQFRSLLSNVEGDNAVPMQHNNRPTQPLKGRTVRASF

{"Smi": "O=c1ccc2ccc(OCCn3cc(CN4c5ccccc5C=Cc5ccccc54)nn3)cc2o1", "Value Units": "nM", "Ki": 122}
{"Smi": "COc1ccc(-n2cc(CN3c4ccccc4C=Cc4ccccc43)nn2)cc1", "Value Units": "nM", "Ki": 54.7}
{"Smi": "C1=Cc2ccccc2N(Cc2cn(-c3cccc4ccccc34)nn2)c2ccccc21", "Value Units": "nM", "Ki": 62.1}
{"Smi": "C1=Cc2ccccc2N(Cc2cn(Cc3ccccc3)nn2)c2ccccc21", "Value Units": "nM", "Ki": 48.8}
{"Smi": "COc1cc(-n2cc(CN3c4ccccc4C=Cc4ccccc43)nn2)cc(OC)c1OC", "Value Units": "nM", "Ki": 94}
{"Smi": "C1=Cc2ccccc2N(Cc2cn(-c3cccnc3)nn2)c2ccccc21", "Value Units": "nM", "Ki": 29.9}
{"Smi": "O=[N+]([O-])c1ccc(-n2cc(CN3c4ccccc4C=Cc4ccccc43)nn2)cc1", "Value Units": "nM", "Ki": 118}
{"Smi": "Oc1ccccc1-n1cc(CN2c3ccccc3C=Cc3ccccc32)nn1", "Value Units": "nM", "Ki": 80.4}
{"Smi": "NS(=O)(=O)c1ccc(-n2cc(CN3c4ccccc4C=Cc4ccccc43)nn2)cc1", "Value Units": "nM", "Ki": 40.5}

* * *

Tested on: MDA-MB-231 cells
Assay: MTT cytotoxicity assay, MDA-MB-231
Format: cell-based
Conditions: Homo sapiens, 72 h treatment
pIC50: −log10 of the molar value.

{"Compound": "Oc1ccccc1-n1cc(CN2c3ccccc3C=Cc3ccccc32)nn1 [Compound 20]", "pIC50": "< 4.00"}
{"Compound": "COc1cc(-n2cc(CN3c4ccccc4C=Cc4ccccc43)nn2)cc(OC)c1OC [Compound 19]", "pIC50": "< 3.82"}
{"Compound": "O=c1ccc2ccc(OCCn3cc(CN4c5ccccc5C=Cc5ccccc54)nn3)cc2o1 [Compound 16]", "pIC50": "< 3.82"}
{"Compound": "O=[N+]([O-])c1ccc(-n2cc(CN3c4ccccc4C=Cc4ccccc43)nn2)cc1 [Compound 18]", "pIC50": "< 3.82"}
{"Compound": "C1=Cc2ccccc2N(Cc2cn(-c3cccnc3)nn2)c2ccccc21 [Compound 14]", "pIC50": "< 4.12"}
{"Compound": "C1=Cc2ccccc2N(Cc2cn(Cc3ccccc3)nn2)c2ccccc21 [Compound 12]", "pIC50": 4.90}
{"Compound": "COc1ccc(-n2cc(CN3c4ccccc4C=Cc4ccccc43)nn2)cc1 [Compound 15]", "pIC50": "< 3.82"}
{"Compound": "NS(=O)(=O)c1ccc(-n2cc(CN3c4ccccc4C=Cc4ccccc43)nn2)cc1 [Compound 17]", "pIC50": 4.44}
{"Compound": "C1=Cc2ccccc2N(Cc2cn(-c3cccc4ccccc34)nn2)c2ccccc21 [Compound 13]", "pIC50": "< 3.90"}
